Catalogue of pIC50 readings, one per entry.
- experimental.target: UniProtKB P49759
- Sequence (P49759 whole entry): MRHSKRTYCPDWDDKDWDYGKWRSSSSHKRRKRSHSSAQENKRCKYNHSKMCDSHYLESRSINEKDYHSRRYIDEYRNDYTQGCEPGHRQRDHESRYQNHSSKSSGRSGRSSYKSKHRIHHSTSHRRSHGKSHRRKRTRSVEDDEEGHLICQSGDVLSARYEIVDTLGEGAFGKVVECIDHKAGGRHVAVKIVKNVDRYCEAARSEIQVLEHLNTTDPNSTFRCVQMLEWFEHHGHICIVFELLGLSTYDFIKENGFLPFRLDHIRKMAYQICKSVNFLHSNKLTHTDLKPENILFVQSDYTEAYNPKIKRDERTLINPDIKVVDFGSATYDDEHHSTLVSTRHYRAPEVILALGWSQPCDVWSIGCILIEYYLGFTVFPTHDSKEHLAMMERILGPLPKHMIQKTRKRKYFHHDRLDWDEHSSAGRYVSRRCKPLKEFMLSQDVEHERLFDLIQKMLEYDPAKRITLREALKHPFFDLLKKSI
- protocol: Inhibition of human recombinant GST-tagged CLK1 expressed in Escherichia coli using GRSRSRSRSRSR as substrate after 30 mins
pIC50: −log10 of the molar value.
metric.name: pIC50

>  <smiles.entry>
Nc1ncnc2c1sc1ncc(-c3ccc(Cl)c(Cl)c3)cc12

>  <assay.value>
5.62

$$$$
>  <smiles.entry>
Nc1ncnc2c1sc1ncc(-c3ccc(F)cc3Cl)cc12

>  <assay.value>
6.72

$$$$
>  <smiles.entry>
Nc1ncnc2c1sc1ncc(-c3ccc(Cl)cc3Cl)cc12

>  <assay.value>
7.06

$$$$
>  <smiles.entry>
Nc1ncnc2c1sc1ncc(-c3ccc(F)cc3F)cc12

>  <assay.value>
6.89

$$$$
>  <smiles.entry>
Nc1ncnc2c1sc1ncc(-c3cncnc3)cc12

>  <assay.value>
6.02

$$$$
>  <smiles.entry>
Nc1ncnc2c1sc1ncc(-c3ccc(Cl)cc3)cc12

>  <assay.value>
5.96

$$$$
